# Assay Target: Catechol O-methyltransferase (Rattus norvegicus)
# Sequence (P22734 whole entry): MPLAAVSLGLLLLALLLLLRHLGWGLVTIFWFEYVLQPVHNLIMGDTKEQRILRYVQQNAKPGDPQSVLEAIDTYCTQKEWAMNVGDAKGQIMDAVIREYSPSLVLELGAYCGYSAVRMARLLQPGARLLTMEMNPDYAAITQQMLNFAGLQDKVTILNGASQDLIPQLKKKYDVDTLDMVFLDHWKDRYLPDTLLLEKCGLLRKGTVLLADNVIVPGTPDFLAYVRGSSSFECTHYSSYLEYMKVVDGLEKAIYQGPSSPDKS
Hi there, I'd appreciate the recorded IC50 for every entry that follows.
Answers are plain numbers, in nM.

These recorded examples may help you get a feel for the data.
# Compound, Assay Value
records = [
    ("Nc1ncnc2c1ncn2[C@@H]1O[C@H](/C=C/CNC(=O)c2cc(-c3ccc(F)cc3)cc(O)c2O)[C@@H](O)[C@H]1O [Bi-substrate Inhibitor, 1b]", 21),
    ("Nc1ncnc2c1ncn2[C@@H]1O[C@H](/C=C/CNC(=O)c2cc(C(=O)C3CCCCC3)cc(O)c2O)[C@@H](O)[C@H]1O [Bi-substrate Inhibitor, 1n]", 83),
    ("Cc1ccc(C(=O)c2cc(O)c(O)c(C(=O)NC/C=C/[C@H]3O[C@@H](n4cnc5c(N)ncnc54)[C@H](O)[C@@H]3O)c2)cc1 [Bi-substrate Inhibitor, 1i]", 34),
    ("Nc1ncnc2c1ncn2[C@@H]1O[C@H](/C=C/CNC(=O)c2cc(C(F)(F)F)cc(O)c2O)[C@@H](O)[C@H]1O [Bi-substrate Inhibitor, 1j]", 35),
    ("Nc1ncnc2c1ncn2[C@@H]1O[C@H](/C=C/CNC(=O)c2cc(C(=O)c3ccncc3)cc(O)c2O)[C@@H](O)[C@H]1O [Bi-substrate Inhibitor, 1l]", 42),
]

We next turn to a different compound, shown below.
Q: Need IC50 of Cc1ccc(Cc2cc(O)c(O)c(C(=O)NC/C=C/[C@H]3O[C@@H](n4cnc5c(N)ncnc54)[C@H](O)C3O)c2)cc1 (stereo partly specified) [Bi-substrate Inhibitor, 1q] , thanks.
Result: 608

Numbers sourced from BindingDB's records for doi:10.1002/cbic.200400084.
